Documented Ki across a set of molecules
# TARGET OR TEST SYSTEM: isolated recombinant JAK1 kinase domain (Homo sapiens (Human))
# MEASUREMENT DESCRIPTION: JAK1 enzyme assay (Caliper LabChip, Ki)
# Format: biochemical
# CONDITION SET: read-out: JAK1 Ki
Write it as a number; the unit nM goes unstated.

Recorded Ki, per entry:
N#CCC1(n2cc(C(N)=O)c(NC(=O)C3CC3)n2)CCN(Cc2cc(O)c(-c3ccccc3)cc2F)CC1 : 0.2
CCc1ccc(-c2ccc(CN3CCC(CC#N)(n4cc(C(N)=O)c(NC(=O)C5CC5C#N)n4)C(F)C3)cc2O)cc1 (stereo not shown) [Example 222] : 0.18
COCc1cccc(-c2ccc(CN3CCC(CC#N)(n4cc(C(N)=O)c(NC(=O)C5CC5)n4)CC3)cc2)c1 : 1.6

Report Ki for COC(=O)Nc1nn(C2(CC#N)CCN(CC3CCC(c4ccccc4)CC3)CC2F)cc1C(N)=O (stereo not shown) [Example 236] tested on isolated recombinant JAK1 kinase domain (Homo sapiens (Human)).
0.21

====

Documented Ki across a set of compounds
# TARGET OR TEST SYSTEM: isolated recombinant JAK1 kinase domain (Homo sapiens (Human))
# MEASUREMENT DESCRIPTION: JAK1 enzyme assay (Caliper LabChip, Ki)
# Format: biochemical
# CONDITION SET: read-out: JAK1 Ki
Write it as a number; the unit nM goes unstated.

Recorded Ki, per entry:
N#CCC1(n2cc(C(N)=O)c(NC(=O)C3CC3)n2)CCN(C(=O)CC(F)(F)F)CC1 : 6.7
N#CCC1(n2cc(C(N)=O)c(NC(=O)C3CC3)n2)CCN(Cc2cccc(SC(F)(F)F)c2)CC1 : 100
N#CCC1(n2cc(C(N)=O)c(NC(=O)C3CC3)n2)CCN(Cc2ccc(Br)c(F)c2)CC1 : 2.6

So what's the measured Ki for this one? `N#CCC1(n2cc(C(N)=O)c(NC(=O)C3CC3)n2)CCN(Cc2ccccc2F)CC1`
90.4

====

# TARGET OR TEST SYSTEM: isolated recombinant JAK1 kinase domain (Homo sapiens (Human))
# MEASUREMENT DESCRIPTION: JAK1 enzyme assay (Caliper LabChip, Ki)
# Format: biochemical
# CONDITION SET: read-out: JAK1 Ki
Rule: measured Ki below 8 nM gets criterion met; anything equal to or greater than 8 nM gets criterion not met.

Completed entries (count: 4):
N#CCC1(n2cc(C(N)=O)c(NC(=O)C3CC3)n2)CCN(Cc2ccc(-n3cnc4ccccc43)cc2)CC1 [Example 88] : criterion not met
CS(=O)(=O)c1ccc(CN2CCC(CC#N)(n3cc(C(N)=O)c(NC(=O)C4CC4)n3)CC2)cc1 [Example 71] : criterion not met
COC(=O)Nc1nn(C2(CC#N)CCN(Cc3ccc(C4=CCCC4)c(O)c3)CC2F)cc1C(N)=O (stereo not shown) [Example 269] : criterion met
N#CCC1(n2cc(C(N)=O)c(NC(=O)C3CC3)n2)CCN(Cc2ccc(-c3ccccn3)cc2)CC1 [Example 185] : criterion met

is_below(Ki, 8 nM) for N#CCC1(n2cc(C(N)=O)c(NC(=O)C3CC3)n2)CCN(Cc2ccc3c(c2)CSC3)CC1 [Example 91] ?
criterion not met

Next record, please: COC(=O)Nc1nn(C2(CC#N)CCN(Cc3ccc(-c4ccco4)nc3F)CC2F)cc1C(N)=O (stereo not shown) [Example 226]
criterion met

Next record, please: N#CCC1(n2cc(C(N)=O)c(NC(=O)C3CC3C#N)n2)CCN(CC2CCC(c3ccccc3)CC2)CC1F (stereo not shown) [Example 231]
criterion met

====

# TARGET OR TEST SYSTEM: isolated recombinant JAK1 kinase domain (Homo sapiens (Human))
# MEASUREMENT DESCRIPTION: JAK1 enzyme assay (Caliper LabChip, Ki)
# Type: biochemical
# CONDITION SET: read-out: JAK1 Ki
Documented Ki across a set of molecules
Write it as a number; the unit nM goes unstated.

Recorded Ki, per entry:
N#CCC1(n2cc(C(N)=O)c(NC(=O)C3CC3)n2)CCN(Cc2cccc(NS(=O)(=O)C(F)(F)F)c2)CC1 [Example 93] : 72.1
N#CCC1(n2cc(C(N)=O)c(NC(=O)C3CC3)n2)CCN(CC2CCC(c3ccccc3)CC2)CC1F (stereo not shown) [Example 234] : 0.27
N#CCC1(n2cc(C(N)=O)c(NC(=O)C3CC3)n2)CCN(Cc2ccccc2C(F)(F)F)CC1 [Example 61] : 8.3

Now for a further molecule.
So what's the measured Ki for this one? COC(=O)Nc1nn(C2(CC#N)CCN(Cc3cc(O)c(C)cc3F)CC2F)cc1C(N)=O (stereo not shown) [Example 292]
0.55

====

# TARGET OR TEST SYSTEM: isolated recombinant JAK1 kinase domain (Homo sapiens (Human))
# MEASUREMENT DESCRIPTION: JAK1 enzyme assay (Caliper LabChip, Ki)
# Assay type: biochemical
# CONDITION SET: read-out: JAK1 Ki
QUANTITY MEASURED: pKi
Reminder that pKi is minus the log10 of a molar concentration.

Recorded pKi, per entry:
N#CCC1(n2cc(C(N)=O)c(NC(=O)[C@H]3C[C@H]3C3CC3)n2)CCN(CC(F)(F)F)CC1 (stereo in doubt) [Example 176] : 6.52
COC(=O)Nc1nn(C2(CC#N)CCN(Cc3cc(O)ccc3Cl)CC2F)cc1C(N)=O (stereo not shown) [Example 273] : 9.48
COC(=O)Nc1nn(C2(CC#N)CCN(Cc3ccc(-c4ccccc4)c(O)c3)CC2F)cc1C(N)=O (stereo not shown) [Example 195] : 9.96
N#CCC1(n2cc(C(N)=O)c(NC(=O)C3CC3)n2)CCN(Cc2ccccc2I)CC1 [Example 53] : 8.15
N#CCC1(n2cc(C(N)=O)c(NC(=O)C3CC3)n2)CCN(Cc2cnc(-c3ccccc3)cc2F)CC1 [Example 202] : 9.26

So what's the measured pKi for this one? N#CCC1(n2cc(C(N)=O)c(NC(=O)C3CC3)n2)CCN(CC2CCC(c3ccccc3)CC2)CC1F (stereo not shown) [Example 233]
9.52

Next record, please: N#CCC1(n2cc(C(N)=O)c(NC(=O)[C@H]3C[C@H]3F)n2)CCN(CC(F)(F)F)CC1 [Example 29]
8.00

====

Documented pKi across a set of molecules
# TARGET OR TEST SYSTEM: isolated recombinant JAK2 kinase domain (Homo sapiens (Human))
# Sequence (O60674 849-1124): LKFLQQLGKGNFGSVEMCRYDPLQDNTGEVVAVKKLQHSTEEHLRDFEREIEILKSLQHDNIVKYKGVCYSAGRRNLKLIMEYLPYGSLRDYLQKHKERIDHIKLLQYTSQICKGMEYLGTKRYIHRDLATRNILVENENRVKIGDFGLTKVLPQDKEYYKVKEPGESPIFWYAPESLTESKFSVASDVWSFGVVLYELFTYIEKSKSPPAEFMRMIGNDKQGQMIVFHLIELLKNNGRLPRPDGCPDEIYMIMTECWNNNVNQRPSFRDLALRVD
# MEASUREMENT DESCRIPTION: JAK2 enzyme assay (Caliper LabChip, Ki)
Reminder that pKi is minus the log10 of a molar concentration.

Recorded pKi, per entry:
N#CCC1(n2cc(C(N)=O)c(NC(=O)C3CC3)n2)CCN(Cc2ccc(-c3cccc(F)c3)c(O)c2)CC1 : 9.00
N#CCC1(n2cc(C(N)=O)c(NC(=O)C3CC3)n2)CCN(Cc2ccccc2OC(F)(F)F)CC1 : 6.60
N#CCC1(n2cc(C(N)=O)c(NC(=O)C3CC3)n2)CCN(Cc2ccc(-n3ccnc3)cc2)CC1 : 6.77
N#CCC1(n2cc(C(N)=O)c(NC(=O)C3CC3)n2)CCN(C(=O)C2CC(F)(F)C2)CC1 : 7.03

Now for a further molecule.
So what's the measured pKi for this one? `N#CCC1(n2cc(C(N)=O)c(NC(=O)C3CC3)n2)CCN(C(=O)Cc2ccccc2)CC1`
6.63

====

# TARGET OR TEST SYSTEM: isolated recombinant JAK1 kinase domain (Homo sapiens (Human), UniProt P23458)
# Sequence (P23458 875-1153): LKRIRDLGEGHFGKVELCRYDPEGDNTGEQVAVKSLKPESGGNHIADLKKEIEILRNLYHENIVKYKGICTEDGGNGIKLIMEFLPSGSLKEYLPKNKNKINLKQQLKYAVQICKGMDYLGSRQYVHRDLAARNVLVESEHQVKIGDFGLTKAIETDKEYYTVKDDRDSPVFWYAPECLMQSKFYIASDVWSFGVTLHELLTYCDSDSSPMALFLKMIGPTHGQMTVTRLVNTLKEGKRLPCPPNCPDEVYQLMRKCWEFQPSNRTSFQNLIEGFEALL
# MEASUREMENT DESCRIPTION: JAK1 enzyme assay (Caliper LabChip, Ki)
# Assay type: biochemical
# CONDITION SET: read-out: JAK1 Ki
Rule: measured Ki below 300 pM gets 1; anything equal to or greater than 300 pM gets 0.

is_below(Ki, 300 pM) for N#CCC1(n2cc(C(N)=O)c(NC(=O)C3CC3)n2)CCN(Cc2cc(O)c(-c3ccccc3)cc2F)CC1F (stereo not shown) ?
1

Next record, please: COC(=O)Nc1nn(C2(CC#N)CCN(Cc3cc(O)c(-c4ccco4)cc3F)CC2F)cc1C(N)=O (stereo not shown)
1

====

# TARGET OR TEST SYSTEM: isolated recombinant JAK1 kinase domain (Homo sapiens (Human), UniProt P23458)
# MEASUREMENT DESCRIPTION: JAK1 enzyme assay (Caliper LabChip, Ki)
# Type: biochemical
# CONDITION SET: read-out: JAK1 Ki
pKi: −log10 of the molar value.
Short version: pKi at least 9 is Satisfied, less is Not satisfied.

Completed entries (count: 2):
COC(=O)Nc1nn(C2(CC#N)CCN(Cc3cc(O)c(-c4ccccc4)cc3F)CC2F)cc1C(N)=O (stereo not shown) : Satisfied
Cc1c(CN2CCC(CC#N)(n3cc(C(N)=O)c(NC(=O)C4CC4)n3)C(F)C2)ccc(-c2ccccc2)c1O (stereo not shown) : Satisfied

Is pKi for `CC(=O)Nc1cc(CN2CCC(CC#N)(n3cc(C(N)=O)c(NC(=O)C4CC4)n3)CC2)ccc1Cl` at or above 9?
Not satisfied

Next record, please: C=Cc1ccc(CN2CCC(CC#N)(n3cc(C(N)=O)c(NC(=O)OC)n3)C(F)C2)cc1O (stereo not shown)
Satisfied

Hello, the source for this data is patent US11731943B2, in case you need it.
